Kindly state inhibition for each of the entries shown.
study_system: Glutamate NMDA receptor; GRIN1/GRIN2B (Homo sapiens) (UniProt Q05586+Q13224)
measurement_protocol: Antagonist activity at GluN1/GluN2B NMDA receptor (unknown origin) transfected in HEK293 cells assessed as inhibition of glycine induced current response at 10 uM in presence of L-glutamate by patch-clamp method
Assay type: cell-based
test_settings: filed as antagonist
Give bare numbers, in %.

See these solved cases before continuing.
// query inhibition value for entry O=C1OC(CCCN2CCN(Cc3ccc(C(F)(F)F)cc3)CC2)c2ccccc21 (single isomer, unassigned; enantiomer A)
71.9

I have this compound here, O=C1OC(CCCN2CCN(Cc3ccc(C(F)(F)F)cc3)CC2)c2ccccc21 (single isomer, unassigned; enantiomer B) , and I need its recorded inhibition.
81

# query: inhibition of entry CC(C(O)c1ccc(O)cc1)N1CCC(Cc2ccccc2)CC1 (centres undefined)
135

Continuing:
Consider the compound shown here: O=C1OC(CCCN2CCN(Cc3ccc(C(F)(F)F)cc3)CC2)c2ccccc21 (racemic) What is its recorded inhibition?
75.4
